- Assay target: Mtb ThyX (Mycobacterium tuberculosis)
- Sequence (P9WG57 whole entry): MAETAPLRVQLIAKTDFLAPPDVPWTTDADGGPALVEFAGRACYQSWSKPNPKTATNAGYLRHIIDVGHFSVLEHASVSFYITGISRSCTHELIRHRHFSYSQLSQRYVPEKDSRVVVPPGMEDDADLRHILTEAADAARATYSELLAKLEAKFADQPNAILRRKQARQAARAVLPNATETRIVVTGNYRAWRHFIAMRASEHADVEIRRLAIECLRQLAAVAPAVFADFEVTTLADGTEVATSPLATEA
- Test: M. tuberculosis ThyX NADPH oxidase assay
- Assay type: biochemical
- Assay setup: 200 μM compound, NADPH oxidase assay, 50 µM FAD; read-out: Inhibition % (Mtb ThyX)
Parameter: inhibition at 200 µM (%)
Quick note: give the figure in %, leave out the unit.

Input Cc1ccc(Cn2c(=O)[nH]c3c(nc4ccccn43)c2=O)cc1 [Compound 10d] . Output inhibition at 200 µM: 20.2

Input CCCCCCC#Cc1ccc2nc3c(=O)n(-c4ccc(F)cc4)c(=O)[nH]c3n2c1 [Compound 21e] . Output inhibition at 200 µM: 31.7

Input O=c1[nH]c2c(nc3ccccn32)c(=O)n1-c1ccc(F)cc1 [Compound 9a] . Output inhibition at 200 µM: 59.5

Input Cc1ccc(Cn2c(=O)n(-c3ccc(F)cc3)c(=O)c3nc4ccccn4c32)cc1 [Compound 13b] . Output inhibition at 200 µM: 10.9

Every entry's value here was drawn from paper PMC9571937.
